Experiment: recombinant UMI read abundance after kanamycin selection (control-corrected) (log10(CPM+1)); higher = more efficient recombination; extreme values may be limits of the assay; sequences stand for … in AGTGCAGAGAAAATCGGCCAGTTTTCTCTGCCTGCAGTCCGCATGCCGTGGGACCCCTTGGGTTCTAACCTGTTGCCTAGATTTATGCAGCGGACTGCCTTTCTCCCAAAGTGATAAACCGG…AGGTTGGTTTCACT; site = the 11-nt donor;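 further: IS621 bridge recombinase in Escherichia coli cells against a fixed T5 target plasmid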
endpoint_name: recombinant UMI read abundance (log10)
In your answer, state the number alone without any accompanying words.

Q: Can you look up the measured recombinant UMI read abundance (log10) of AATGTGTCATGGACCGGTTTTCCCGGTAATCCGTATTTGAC (site CATGTGTCTGT) for me?
A: 0.999

Q: State the recorded recombinant UMI read abundance (log10) for this entry: TCAGAGACATGGACCGGTTTTCCCGGTAATCCGTATTTGTG (site TCAGAGACTCT)
A: 0.205

Q: Which measured recombinant UMI read abundance (log10) value corresponds to TATTGGACATGGACCGGTTTTCCCGGTAATCCGTATTTGAC (site TATTGGACTGT) ?
A: 1.68

Q: Quick one: recombinant UMI read abundance (log10) for CAATCATCATGGACCGGTTTTCCCGGTAATCCGTATTTGAT (site CGATCATCTAG) ?
A: 0

Q: Item under review: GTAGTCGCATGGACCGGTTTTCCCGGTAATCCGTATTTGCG (site GTAGTGGCTCG) . Reported recombinant UMI read abundance (log10)?
A: 0.013

Q: Any idea what its recombinant UMI read abundance (log10) is? The sequence is AGGAATCCATGGACCGGTTTTCCCGGTAATCCGTATTTGTA (site CGGAATCCTAA)
A: 0.00925

Q: // query recombinant UMI read abundance (log10) value for entry CGTCAGACATGGACCGGTTTTCCCGGTAATCCGTATTTGAG (site CGTTAGACTCT)
A: 0.0174

Q: Dear colleague, I am looking for the recorded recombinant UMI read abundance (log10) of the following sequence: GATGGTTCATGGACCGGTTTTCCCGGTAATCCGTATTTGAT (site GATGGTTCTAT)
A: 1.58

Q: Consider the sequence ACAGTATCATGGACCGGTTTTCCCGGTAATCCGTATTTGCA (site ACTGTATCTTG) and give its measured recombinant UMI read abundance (log10).
A: 2.31

Q: Can you look up the measured recombinant UMI read abundance (log10) of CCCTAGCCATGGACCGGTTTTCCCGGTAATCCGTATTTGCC (site CCCTAGCCTGG) for me?
A: 0

Q: Tell me the measured recombinant UMI read abundance (log10) of TGAGGTTCATGGACCGGTTTTCCCGGTAATCCGTATTTGAC (site TGAGGTTCTGT) , please.
A: 2.17

Q: I would be grateful if you could share the reported recombinant UMI read abundance (log10) for ATCTAGGCATGGACCGGTTTTCCCGGTAATCCGTATTTGGC (site ATTTAGGCTGC) .
A: 0

Q: # get_value(readout='recombinant UMI read abundance (log10)', item= TCCGCGACATGGACCGGTTTTCCCGGTAATCCGTATTTGTA (site TCCGCGACTTA) )
A: 0.0159

Q: Any idea what its recombinant UMI read abundance (log10) is? The sequence is CAGGCGACATGGACCGGTTTTCCCGGTAATCCGTATTTGGG (site CAGCCGACTCC)
A: 0.0323

Q: Entry CGTGTAACATGGACCGGTTTTCCCGGTAATCCGTATTTGTT (site CGTGGAACTAA) has what recombinant UMI read abundance (log10)?
A: 0.0109

Q: May I ask what recombinant UMI read abundance (log10) has been recorded for TAGATAGCATGGACCGGTTTTCCCGGTAATCCGTATTTGAA (site TAGATAGCTTT) ?
A: 2.07

Q: // recombinant UMI read abundance (log10) lookup, key: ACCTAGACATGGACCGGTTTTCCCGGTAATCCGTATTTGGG (site ACCTAGACTCA)
A: 0.0191

Q: GET /values?readout=recombinant UMI read abundance (log10)&item= ATCATTGCATGGACCGGTTTTCCCGGTAATCCGTATTTGGC (site ATCATTGCTGC)
A: 2.13

Q: Please give the measured recombinant UMI read abundance (log10) for this sequence: GTCACACCATGGACCGGTTTTCCCGGTAATCCGTATTTGTT (site GTCACACCTAA)
A: 0.00382

Q: Form field: reported recombinant UMI read abundance (log10) of GTCGGTACATGGACCGGTTTTCCCGGTAATCCGTATTTGAC (site GTGGGTACTGT)
A: 0

Q: Which recombinant UMI read abundance (log10) reading was recorded for the sequence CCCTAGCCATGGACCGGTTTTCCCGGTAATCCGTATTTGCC (site CCTTAGCCTGG) ?
A: 0

Q: Record request: recombinant UMI read abundance (log10) value, item CCCGGTGCATGGACCGGTTTTCCCGGTAATCCGTATTTGCA (site CCCGGTCCTTG)
A: 0.0126

Q: What value of recombinant UMI read abundance (log10) has been reported for the following sequence? GGTCCCACATGGACCGGTTTTCCCGGTAATCCGTATTTGTA (site GGTCCTACTTA)
A: 0.0287

Q: So what does the record say about recombinant UMI read abundance (log10) for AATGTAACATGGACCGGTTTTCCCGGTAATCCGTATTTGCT (site AATGTTACTAG) ?
A: 1.14

Q: Report recombinant UMI read abundance (log10) for TCCCATTCATGGACCGGTTTTCCCGGTAATCCGTATTTGCC (site TCCTATTCTGG) please.
A: 0

Q: Recorded recombinant UMI read abundance (log10) for CCCTACCCATGGACCGGTTTTCCCGGTAATCCGTATTTGCC (site CCCTAACCTGG) , please?
A: 0

Q: Dear colleague, I am looking for the recorded recombinant UMI read abundance (log10) of the following sequence: AATTACGCATGGACCGGTTTTCCCGGTAATCCGTATTTGGA (site AATTACGCTTC)
A: 0.807

Q: What recombinant UMI read abundance (log10) value was documented for this sequence, TCTAATTCATGGACCGGTTTTCCCGGTAATCCGTATTTGCC (site TCGAATTCTGG) ?
A: 0

Q: I'd like to know its recombinant UMI read abundance (log10). The sequence in question is AGCGCAGCATGGACCGGTTTTCCCGGTAATCCGTATTTGGG (site AGCCCAGCTCC)
A: 0.0111

Q: For GATGTGTCATGGACCGGTTTTCCCGGTAATCCGTATTTGAC (site TATGTGTCTGT) , what is its reported recombinant UMI read abundance (log10)?
A: 0.677

Q: // query recombinant UMI read abundance (log10) value for entry GTTAGTACATGGACCGGTTTTCCCGGTAATCCGTATTTGGC (site GTTAGCACTGC)
A: 0

Q: Which recombinant UMI read abundance (log10) value belongs to TAGCTAACATGGACCGGTTTTCCCGGTAATCCGTATTTGAA (site TAGCTATCTTT) ?
A: 0.429

Q: recombinant UMI read abundance (log10) for GAGCCGGCATGGACCGGTTTTCCCGGTAATCCGTATTTGAA (site GAGCCGGCTTT) ?
A: 0.241

Q: # lookup: recombinant UMI read abundance (log10) of TAGGTATCATGGACCGGTTTTCCCGGTAATCCGTATTTGCG (site TAGGGATCTCG)
A: 1.7

Q: Which recombinant UMI read abundance (log10) value is on record for AGTGGAACATGGACCGGTTTTCCCGGTAATCCGTATTTGTC (site AGTGGAACTGA) ?
A: 2.3

Q: Any idea what recombinant UMI read abundance (log10) was measured for TGCTAGGCATGGACCGGTTTTCCCGGTAATCCGTATTTGGC (site TGCTAGGCTTC) ?
A: 0.0105

---

Assay: recombinant UMI read abundance after kanamycin selection (control-corrected) (log10(CPM+1)); higher = more efficient recombination; extreme values may be limits of the assay; sequences stand for … in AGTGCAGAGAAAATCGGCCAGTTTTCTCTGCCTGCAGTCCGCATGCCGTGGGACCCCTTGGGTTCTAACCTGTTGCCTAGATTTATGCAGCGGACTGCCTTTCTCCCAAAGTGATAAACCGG…AGGTTGGTTTCACT; site = the 11-nt donor
endpoint_name: recombinant UMI read abundance (log10)
Just the number.

Q: Could you share which recombinant UMI read abundance (log10) value was measured for GTACGTACATGGACCGGTTTTCCCGGTAATCCGTATTTGAC (site GTAAGTACTGT) ?
A: 0.00784

Q: Field request: recombinant UMI read abundance (log10) | item: CGATCATCATGGACCGGTTTTCCCGGTAATCCGTATTTGCG (site CGATCATCTCG)
A: 2.32

Q: What recombinant UMI read abundance (log10) value was documented for this sequence, TCACCGACATGGACCGGTTTTCCCGGTAATCCGTATTTGGA (site TCACCGACTTC) ?
A: 0.0438

Q: Look up recombinant UMI read abundance (log10) for this sequence: ACAGTCTCATGGACCGGTTTTCCCGGTAATCCGTATTTGCA (site ACAGTATCTTG)
A: 2.26

Q: # recombinant UMI read abundance (log10) lookup, item CACTGCTCATGGACCGGTTTTCCCGGTAATCCGTATTTGAA (site CACTGCTCTTT)
A: 2.09
